All values here come from patent US20210388087A1.

- Target under test: T1, Human CD3eg linker (human)
- T1 construct: Single-chain construct; also called recombinant human CD3
- T1 chain: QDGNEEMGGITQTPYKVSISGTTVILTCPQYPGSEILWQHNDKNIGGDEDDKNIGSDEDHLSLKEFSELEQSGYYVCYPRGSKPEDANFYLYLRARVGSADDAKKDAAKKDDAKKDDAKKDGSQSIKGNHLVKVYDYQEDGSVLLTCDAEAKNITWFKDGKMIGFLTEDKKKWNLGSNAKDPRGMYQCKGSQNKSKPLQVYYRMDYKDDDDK
- Test summary: SPR; fold vs parent H183/L072
Item-by-item account of fold change of affinity
Kindly answer with a numeric value in fold, unit omitted.

Reference set (2 entries):
1) H183/L072 VL N30K (antibody, name in Kabat numbering, V domains shown) VH: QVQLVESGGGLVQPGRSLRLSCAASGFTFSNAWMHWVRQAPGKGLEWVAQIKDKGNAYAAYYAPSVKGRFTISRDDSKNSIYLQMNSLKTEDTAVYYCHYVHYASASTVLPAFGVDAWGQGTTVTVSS VL: DIVMTQSPLSLPVTPGEPASISCQASQELVHMNRKTYLHWYQQKPGQAPRLLIYKVSNRFPGVPDRFSGSGSGTDFTLKISRVEAEDVGVYYCAQGTSVPFTFGQGTKLEIK    1.3
2) H183/L072 VL L27bQ (antibody, name in Kabat numbering, V domains shown) VH: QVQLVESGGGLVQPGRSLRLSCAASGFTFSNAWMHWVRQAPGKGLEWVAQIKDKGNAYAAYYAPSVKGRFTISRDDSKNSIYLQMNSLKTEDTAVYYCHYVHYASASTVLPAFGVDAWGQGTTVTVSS VL: DIVMTQSPLSLPVTPGEPASISCQASQEQVHMNRNTYLHWYQQKPGQAPRLLIYKVSNRFPGVPDRFSGSGSGTDFTLKISRVEAEDVGVYYCAQGTSVPFTFGQGTKLEIK    0

Proceed to the following item.
Please report the recorded fold change of affinity for H183/L072 VL V51D (antibody, name in Kabat numbering, V domains shown) VH: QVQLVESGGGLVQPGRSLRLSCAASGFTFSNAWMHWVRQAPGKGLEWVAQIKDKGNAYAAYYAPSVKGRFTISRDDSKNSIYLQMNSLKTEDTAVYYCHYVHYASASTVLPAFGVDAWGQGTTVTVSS VL: DIVMTQSPLSLPVTPGEPASISCQASQELVHMNRNTYLHWYQQKPGQAPRLLIYKDSNRFPGVPDRFSGSGSGTDFTLKISRVEAEDVGVYYCAQGTSVPFTFGQGTKLEIK .
0
